Target: T1, transferrin (human, UniProt P02787 20-698)
T1 construct: also called TRF; pooled human transferrin (Sigma)
T1 sequence (P02787 20-698 limits assumed): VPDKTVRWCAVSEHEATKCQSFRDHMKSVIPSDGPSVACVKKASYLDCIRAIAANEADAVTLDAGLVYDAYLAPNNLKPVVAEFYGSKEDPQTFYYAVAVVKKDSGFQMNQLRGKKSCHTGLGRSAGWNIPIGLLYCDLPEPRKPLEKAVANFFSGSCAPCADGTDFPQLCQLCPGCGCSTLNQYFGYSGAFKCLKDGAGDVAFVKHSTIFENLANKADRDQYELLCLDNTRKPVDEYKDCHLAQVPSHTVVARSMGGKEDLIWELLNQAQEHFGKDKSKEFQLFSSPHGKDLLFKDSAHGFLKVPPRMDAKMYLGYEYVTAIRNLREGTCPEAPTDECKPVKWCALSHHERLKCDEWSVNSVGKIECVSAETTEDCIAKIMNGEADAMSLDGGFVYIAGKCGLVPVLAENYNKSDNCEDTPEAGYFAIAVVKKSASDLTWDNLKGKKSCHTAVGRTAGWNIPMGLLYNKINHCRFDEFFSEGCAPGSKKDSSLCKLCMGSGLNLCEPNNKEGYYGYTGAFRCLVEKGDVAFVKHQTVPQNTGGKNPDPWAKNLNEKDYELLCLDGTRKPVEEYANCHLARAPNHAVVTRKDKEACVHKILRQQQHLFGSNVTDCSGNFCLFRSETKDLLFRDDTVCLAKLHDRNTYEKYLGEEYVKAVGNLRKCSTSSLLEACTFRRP
Test: SPR (Biacore A-100), purified peptide at several concentrations, equilibrium
PARAMETER: Kd (µM)
Write it as a number; the unit µM goes unstated.

Kd for ARDLLIQKNSGQDVDHRGSC (Screened unpurified, then resynthesised and HPLC purified) [TRF101] is 78.9
